inhibition at […] by entry:
Molecular target: BIR3 domain of human cIAP-1 (residues 267-363) (Homo sapiens (Human), UniProt Q13490)
Sequence (Q13490 267-363): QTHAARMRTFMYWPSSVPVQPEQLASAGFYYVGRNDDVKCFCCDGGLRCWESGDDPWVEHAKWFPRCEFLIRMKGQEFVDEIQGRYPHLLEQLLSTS
Experiment: cIAP-1 in vitro competitive displacement binding assay (fluorescence polarization; Probe A AVPIK(5&6FAM)-amide or Probe B AbuRPFK(5&6FAM)-amide)
Details: 3 h; Probe B, @ 0.012 μM; read-out: IC50 or PI cIAP1: PI
Where a name gives a salt, the structure may show the parent alone.
Express the result in % but write the number alone.

Query (compound): CCCC(F)(F)c1cnc2c(c1)N(C(=O)CN1C[C@@H](C)NC[C@@H]1CN1CCOCC1)CC2(C)C [Example 238, hydrochloride] ; field requested: inhibition at […]
69

Query (compound): C[C@@H]1CN(CC(=O)N2CC(C)(C)c3cnc(C(F)(F)c4ccccc4)cc32)[C@@H](CN2CCN(C)C2=O)CN1 [Example 197, hydrochloride] ; field requested: inhibition at […]
76

Query (compound): Cc1nc(C)n(C[C@H]2CN[C@H](C)CN2CC(=O)N2CC(C)(C)c3cnc(Cc4ccc(F)cc4F)cc32)n1 [Example 206, hydrochloride] ; field requested: inhibition at […]
97

Query (compound): CC(C)CC(F)(F)c1cc2c(cn1)C(C)(C)CN2C(=O)CN1C[C@@H](C)NC[C@@H]1CN1CCOCC1 [Example 229, hydrochloride] ; field requested: inhibition at […]
73

Query (compound): C[C@@H]1CN(CC(=O)N2CC(C)(C)c3cnc(Cc4ccc(F)cc4F)cc32)[C@@H](CN2CC[C@H](F)C2)CN1 [Example 202] ; field requested: inhibition at […]
88

Query (compound): C[C@@H]1CN(CC(=O)N2CC(C)(C)c3cnc(Cc4ccc(F)cc4F)cc32)[C@@H](CN2CCCC2=O)CN1 [Example 179, hydrochloride] ; field requested: inhibition at […]
97
